test system: HCT-15 colon; assay: NCI-60 one-dose screen, 48 h (100 = growth as untreated, 0 = no growth, -100 = all killed); settings: 10 µM
About 83,000 compounds went through this panel and 20% of them were active in at least one assay; those are over-represented in the sample as a whole.
Reported growth values for a set of molecules
The figure you give is taken to be in %; do not add the unit.

Solved cases (5 shown):
>>> reported("CC1(c2ccccc2)NC(=O)N(CC(=O)Nc2ccc(C(=O)/C=C/C=C/c3ccccc3)cc2)C1=O (stereo unspecified)")
12.8
>>> reported("CC(=O)Nc1ccc(-c2cn(-c3cccc(C(=O)Nc4cc(CN5CCOCC5)cc(C(F)(F)F)c4)c3)nn2)cn1")
-86.2
>>> reported("O=C(c1ccc(Cl)cc1)C1[C@H](c2ccc(Br)cc2)[C@@H](c2ccccc2)NC12C(=O)Nc1ccc(Br)cc12 (stereo partly specified)")
-91.6
>>> reported("COc1cc(/C=C/C(=O)c2ccc(S(=O)(=O)NCCNc3nc(Nc4ccc(F)cc4)nc(N(C)C)n3)cc2)cc(OC)c1OC")
-65.9
>>> reported("Cc1nc(Nc2nc(C)c3ccc(OCCN4CCOCC4)cc3n2)[nH]c(=O)c1C")
-48.7

Task: Bench note: what growth did CC[C@]12C=CCN3CC[C@@]4(c5cc(C#CCNc6ccc(C)c(Nc7nccc(-c8cccnc8)n7)c6)c(OC)cc5N(C)[C@H]4[C@@](O)(C(=O)OC)[C@@H]1OC(C)=O)C32 (stereo partly specified) show?
Result: 25.9
